Would you mind telling me the reported pIC50 of each entry?
Biological target: Calpain-1 catalytic subunit (Rattus norvegicus, UniProt P97571)
Experiment: Inhibition of rat CAPN1 using BODIPY-labeled casein substrate by fluorometric analysis
Residues, ends and D or L forms follow the SMILES beside them. *: point of attachment. Tos = Cc1ccc(S(=O)(=O)*)cc1
A value of pIC50 is the negative decimal logarithm of a concentration given in moles per litre.

Considering CCCC[C@H](NS(=O)(=O)c1ccc(F)cc1)C(=O)N[C@H](C=O)CC(C)C , its pIC50 with Calpain-1 catalytic subunit (Rattus norvegicus, UniProt P97571) was recorded as 6.59

Noted pIC50 for CC(C)C[C@@H](C=O)NC(=O)[C@@H](NS(=O)(=O)c1ccc(Cl)cc1)C(C)C , tested on Calpain-1 catalytic subunit (Rattus norvegicus, UniProt P97571): 7.51

Form: item CC(C)[C@H](NS(=O)(=O)c1ccc(Cl)cc1)C(=O)N[C@H](C=O)Cc1c[nH]c2ccccc12 ; test system Calpain-1 catalytic subunit (Rattus norvegicus, UniProt P97571); pIC50: 7.89

Result for CC(C)C[C@@H](C=O)NC(=O)[C@H](C(C)C)N(C)S(=O)(=O)c1ccc(F)cc1 , tested on Calpain-1 catalytic subunit (Rattus norvegicus, UniProt P97571), pIC50: 4.68

Summary line: Cc1ccc(S(=O)(=O)N[C@H](C(=O)N[C@H](C=O)Cc2ccccc2)C(C)C)cc1 (Tos-Val-Phe-aldehyde) , Calpain-1 catalytic subunit (Rattus norvegicus, UniProt P97571), reported pIC50 = 7.74

* * *

Molecular target: Calpain-1 catalytic subunit (Rattus norvegicus, UniProt P97571)
Sequence (P97571 whole entry): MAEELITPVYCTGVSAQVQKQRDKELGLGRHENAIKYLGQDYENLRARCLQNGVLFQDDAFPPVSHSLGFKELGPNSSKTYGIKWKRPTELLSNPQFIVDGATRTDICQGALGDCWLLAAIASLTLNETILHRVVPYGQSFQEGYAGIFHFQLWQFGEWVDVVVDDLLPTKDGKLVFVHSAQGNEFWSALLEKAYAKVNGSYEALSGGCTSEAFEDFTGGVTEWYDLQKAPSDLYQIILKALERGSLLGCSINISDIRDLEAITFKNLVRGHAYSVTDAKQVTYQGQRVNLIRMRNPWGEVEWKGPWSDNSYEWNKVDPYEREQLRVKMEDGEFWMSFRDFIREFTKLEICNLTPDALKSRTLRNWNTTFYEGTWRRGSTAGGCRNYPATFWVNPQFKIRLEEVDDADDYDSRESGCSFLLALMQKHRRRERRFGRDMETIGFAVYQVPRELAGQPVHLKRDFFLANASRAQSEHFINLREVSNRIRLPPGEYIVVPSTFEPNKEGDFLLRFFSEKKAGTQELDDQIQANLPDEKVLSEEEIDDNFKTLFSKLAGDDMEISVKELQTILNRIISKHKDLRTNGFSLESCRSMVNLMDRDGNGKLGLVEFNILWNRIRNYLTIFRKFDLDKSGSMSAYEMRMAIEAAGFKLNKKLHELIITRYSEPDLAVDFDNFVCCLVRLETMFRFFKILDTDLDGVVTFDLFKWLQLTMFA
Test: Inhibition of rat CAPN1 using BODIPY-labeled casein substrate by fluorometric analysis
Residues, ends and D or L forms follow the SMILES beside them. *: point of attachment. Tos = Cc1ccc(S(=O)(=O)*)cc1; Ms = CS(=O)(=O)*
assay-endpoint: log10 IC50 (log10 of the value in nM)
In plain terms, each number is the log10 of measured IC50 in nM.

What the record says about CC(C)C[C@@H](C=O)NC(=O)[C@@H](NS(=O)(=O)c1ccc2ccccc2c1)C(C)C : log10 IC50 is 1.00

# log10 IC50 of CC(C)[C@H](NS(=O)(=O)c1ccc(F)cc1)C(=O)N[C@H](C=O)Cc1c[nH]c2ccccc12 = 1.36

For record CC(C)[C@H](NS(=O)(=O)c1ccc2ccccc2c1)C(=O)N[C@H](C=O)Cc1ccccc1 the listed log10 IC50 is 1.15

Looking up CC(C)[C@H](NS(=O)(=O)c1ccc(F)cc1)C(=O)N[C@@H](C)C=O , I see its log10 IC50 listed as 2.80

Noted for Cc1ccc(S(=O)(=O)N[C@H](C(=O)N[C@H](C=O)CC(C)C)C(C)C)cc1 (Tos-Val-Leu-aldehyde) : its log10 IC50 reads 1.45

// recorded log10 IC50 for CC(C)C[C@@H](C=O)NC(=O)[C@@H](NS(C)(=O)=O)C(C)C (Ms-Val-Leu-aldehyde) : 2.92

Lab note: measured log10 IC50 of CCC[C@H](NS(=O)(=O)c1ccc(F)cc1)C(=O)N[C@H](C=O)CC(C)C was 2.11

Briefly, log10 IC50 measured for CC(C)[C@H](NS(=O)(=O)c1ccc(Cl)cc1)C(=O)N[C@H](C=O)Cc1ccccc1 : 1.15

What the record says about CC(C)[C@H](NS(=O)(=O)c1ccc(F)cc1)C(=O)N[C@H](C=O)Cc1ccccc1 : log10 IC50 is 1.43

* * *

Target: Calpain-2 catalytic subunit (Homo sapiens, UniProt P17655)
Sequence (P17655 whole entry): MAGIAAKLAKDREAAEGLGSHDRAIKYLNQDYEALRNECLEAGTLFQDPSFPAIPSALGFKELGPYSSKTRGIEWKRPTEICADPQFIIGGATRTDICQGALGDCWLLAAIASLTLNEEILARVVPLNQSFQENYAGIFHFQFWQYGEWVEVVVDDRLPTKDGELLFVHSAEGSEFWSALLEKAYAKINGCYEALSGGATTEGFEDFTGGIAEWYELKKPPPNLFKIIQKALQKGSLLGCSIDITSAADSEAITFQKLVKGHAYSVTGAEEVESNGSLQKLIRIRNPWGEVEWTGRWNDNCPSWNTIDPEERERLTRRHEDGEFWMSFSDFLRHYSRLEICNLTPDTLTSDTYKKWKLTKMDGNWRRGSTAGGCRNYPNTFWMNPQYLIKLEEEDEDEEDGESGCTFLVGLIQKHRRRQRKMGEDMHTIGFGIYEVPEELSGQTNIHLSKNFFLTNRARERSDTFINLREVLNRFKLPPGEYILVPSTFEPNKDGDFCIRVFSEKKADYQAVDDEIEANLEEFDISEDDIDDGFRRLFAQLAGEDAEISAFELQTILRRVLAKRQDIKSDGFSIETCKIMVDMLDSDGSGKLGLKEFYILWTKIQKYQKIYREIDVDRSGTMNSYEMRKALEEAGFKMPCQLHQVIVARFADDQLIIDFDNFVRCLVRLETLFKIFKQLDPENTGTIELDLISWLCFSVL
Test: Inhibition of CAPN2 using BODIPY-labeled casein substrate by fluorometric analysis
Output class 1 for records whose IC50 is lower than 1000 nM, class 0 for records at or above 1000 nM.

Query: Threshold test, IC50 < 1000 nM: CC(C)C[C@@H]1NC(=O)[C@@H](NC(=O)OCc2ccccc2)Cc2ccc(cc2)OCCCCSC[C@@H](CO)NC1=O
Reply: class 0

Query: Hello, I'm reviewing records and need to know if IC50 of CC(C)[C@@H]1NC(=O)[C@@H](NC(=O)OCc2ccccc2)Cc2ccc(cc2)OCCCC[C@@H](C=O)NC1=O is below 1000 nM. Could you check?
Reply: class 1

Query: Is IC50 of CC(C)C[C@@H]1NC(=O)[C@@H](NC(=O)OCc2ccccc2)Cc2ccc(cc2)OCCC[C@@H](C=O)NC1=O strictly below 1000 nM?
Reply: class 1

Query: Record CC(C)C[C@@H]1NC(=O)[C@@H](NC(=O)OCc2ccccc2)Cc2ccc(cc2)OCCC[C@@H](CO)NC1=O : is its IC50 strictly below 1000 nM?
Reply: class 0
